Reported values of pKd for individual entries
target: ATF6B (Homo sapiens, UniProt Q99941); experiment: Direct-binding FRET assay; parameters: made in house; details: 23°C; C-terminal rhodamine design; repeat 1; read-out: Kd
Sequence (Q99941 325-388 limits assumed): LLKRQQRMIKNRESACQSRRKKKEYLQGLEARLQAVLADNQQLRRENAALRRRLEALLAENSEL
pKd: −log10 of the molar value. Where no end group is shown, it is not given here.

| seq | pKd |
| --- | --- |
| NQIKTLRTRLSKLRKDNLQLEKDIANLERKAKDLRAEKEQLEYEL [ATF4-d1] | < 5.30 |

Let's switch to this sequence now.
The recorded pKd for entry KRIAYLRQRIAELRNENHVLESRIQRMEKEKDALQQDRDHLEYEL [ATF5-d1] equals < 5.30

###

target: MAFF (Homo sapiens, UniProt Q9ULX9); construct: made in house; assay: Direct-binding FRET assay; conditions: 37°C; C-terminal rhodamine design; repeat 2; read-out: Kd
Sequence (Q9ULX9 51-114 limits assumed): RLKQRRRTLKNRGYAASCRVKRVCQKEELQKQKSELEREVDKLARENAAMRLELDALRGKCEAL
pKd: −log10 of the molar value. Where no end group is shown, it is not given here.
measurement_label: pKd

// pKd value for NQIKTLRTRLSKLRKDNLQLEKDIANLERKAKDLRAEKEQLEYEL [ATF4-d1] : > 6.70

###

Molecular target: BACH1 (Homo sapiens)
Sequence (O14867 557-620 limits assumed): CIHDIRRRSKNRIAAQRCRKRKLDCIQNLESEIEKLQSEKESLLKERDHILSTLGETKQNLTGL
Assay: Direct-binding FRET assay
Set-up: made in house
Conditions: 4°C; C-terminal rhodamine design; mean or single
Protocol: The direct binding assay was performed manually in 384-well plates and is similar to a previously described assay. Wells were filled with 20 μL of 1 mM TCEP-HCl. […] Briefly, the Kd of the designed peptide homodimer was experimentally determined and used with previously determined target homodimer Kd values to determine the heterodimer Kd. […] A minimum 15% change in the donor fluorescence upon titrating the acceptor peptide from 0 to 1000 nM was required for a fit to be attempted. […]
pKd: −log10 of the molar value. Where no end group is shown, it is not given here.
measurement_label: pKd

// pKd lookup, sequence = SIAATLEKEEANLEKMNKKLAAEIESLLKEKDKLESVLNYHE [JUN-d1] , result: < 6.00

###

Biological target: CREB3L3 (Homo sapiens)
Construct: made in house
Sequence (Q68CJ9 243-306 limits assumed): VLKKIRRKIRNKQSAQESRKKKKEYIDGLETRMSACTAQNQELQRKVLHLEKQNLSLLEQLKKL
Assay: Direct-binding FRET assay
Protocol: The direct binding assay was performed manually in 384-well plates and is similar to a previously described assay. Wells were filled with 20 μL of 1 mM TCEP-HCl. […] Briefly, the Kd of the designed peptide homodimer was experimentally determined and used with previously determined target homodimer Kd values to determine the heterodimer Kd. […] A minimum 15% change in the donor fluorescence upon titrating the acceptor peptide from 0 to 1000 nM was required for a fit to be attempted. […]
pKd: −log10 of the molar value. Where no end group is shown, it is not given here.
measurement_label: pKd

So, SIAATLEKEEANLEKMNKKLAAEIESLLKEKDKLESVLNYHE [JUN-d1] ? Its pKd was < 6.00

###

target: BATF (Homo sapiens, UniProt Q16520); construct: made in house; assay: Direct-binding FRET assay; settings: 37°C; N-terminal rhodamine design; mean or single; read-out: Kd
Sequence (Q16520 26-89 limits assumed): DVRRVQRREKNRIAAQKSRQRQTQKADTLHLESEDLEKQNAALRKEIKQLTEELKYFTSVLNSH
pKd: −log10 of the molar value. Where no end group is shown, it is not given here.
Items are presented alongside their recorded pKd.

The value of pKd measured for the sequence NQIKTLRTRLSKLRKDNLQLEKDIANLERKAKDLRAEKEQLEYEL [ATF4-d1] turned out to be < 6.00

Short answer for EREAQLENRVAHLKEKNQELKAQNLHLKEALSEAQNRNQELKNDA [XBP1-d1] : pKd was < 6.00

Kindly note the recorded pKd for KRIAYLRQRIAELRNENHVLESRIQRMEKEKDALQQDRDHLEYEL [ATF5-d1] , which is < 5.30

###

Biological target: MAFG (Homo sapiens)
Sequence (O15525 51-114 limits assumed): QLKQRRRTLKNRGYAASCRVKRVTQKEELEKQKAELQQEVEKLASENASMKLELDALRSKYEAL
Assay: Direct-binding FRET assay
Design: made in house
Settings: 23°C; C-terminal rhodamine design; repeat 1
Method: The direct binding assay was performed manually in 384-well plates and is similar to a previously described assay. Wells were filled with 20 μL of 1 mM TCEP-HCl. […] Briefly, the Kd of the designed peptide homodimer was experimentally determined and used with previously determined target homodimer Kd values to determine the heterodimer Kd. […] A minimum 15% change in the donor fluorescence upon titrating the acceptor peptide from 0 to 1000 nM was required for a fit to be attempted. […]
Where no end group is shown, it is not given here.
measurement_label: Kd

Result for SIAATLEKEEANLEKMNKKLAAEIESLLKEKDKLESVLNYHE [JUN-d1] , tested on MAFG (Homo sapiens), Kd: > 1000 nM

###

biological target: CREBZF (Homo sapiens); construct: made in house; assay: Direct-binding FRET assay; settings: 37°C; C-terminal fluorescein design as donor, TAMRA target titrated
Where no end group is shown, it is not given here.
measurement_label: Kd

Recorded result, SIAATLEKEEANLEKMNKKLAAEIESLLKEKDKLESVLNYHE [JUN-d1] , Kd: > 1000 nM

###

Biological target: FOS (Homo sapiens)
Sequence (P01100 137-200 limits assumed): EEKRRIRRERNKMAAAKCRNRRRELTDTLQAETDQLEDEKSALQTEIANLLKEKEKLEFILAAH
Assay: Direct-binding FRET assay
Design: made in house
Conditions: 4°C; C-terminal rhodamine design; mean or single; read-out: Kd
Experimental: The direct binding assay was performed manually in 384-well plates and is similar to a previously described assay. Wells were filled with 20 μL of 1 mM TCEP-HCl. […] Briefly, the Kd of the designed peptide homodimer was experimentally determined and used with previously determined target homodimer Kd values to determine the heterodimer Kd. […] A minimum 15% change in the donor fluorescence upon titrating the acceptor peptide from 0 to 1000 nM was required for a fit to be attempted. […]
Where no end group is shown, it is not given here.
measurement_label: Kd

Memo: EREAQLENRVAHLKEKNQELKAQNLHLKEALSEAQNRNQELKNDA [XBP1-d1] , reported Kd: > 1 µM

###

target: CREB3L3 (Homo sapiens); construct: made in house; assay: Direct-binding FRET assay; settings: 23°C; N-terminal rhodamine design; mean or single; read-out: Kd
Where no end group is shown, it is not given here.
measurement_label: Kd

| seq | Kd |
| --- | --- |
| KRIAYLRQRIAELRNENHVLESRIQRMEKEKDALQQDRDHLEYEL [ATF5-d1] | > 5000 nM |

# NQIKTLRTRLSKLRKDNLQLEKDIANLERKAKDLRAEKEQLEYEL [ATF4-d1] with CREB3L3 (Homo sapiens): Kd is > 1000 nM

Kd on CREB3L3 (Homo sapiens) for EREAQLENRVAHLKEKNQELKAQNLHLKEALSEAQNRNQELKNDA [XBP1-d1] is > 1000 nM

###

target: HLF (Homo sapiens); construct: made in house; assay: Direct-binding FRET assay; conditions: 37°C; N-terminal rhodamine design; mean or single
Sequence (Q16534 225-288 limits assumed): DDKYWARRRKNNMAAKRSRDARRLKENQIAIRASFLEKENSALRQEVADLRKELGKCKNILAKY
Where no end group is shown, it is not given here.
measurement_label: Kd

Entry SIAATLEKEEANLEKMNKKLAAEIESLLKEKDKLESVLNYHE [JUN-d1] ; assay system HLF (Homo sapiens); Kd recorded at > 1000 nM

###

Target: NFE2 (Homo sapiens)
Construct: made in house
Sequence (Q16621 266-329 limits assumed): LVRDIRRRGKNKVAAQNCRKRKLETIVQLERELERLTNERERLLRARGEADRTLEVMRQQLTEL
Assay: Direct-binding FRET assay
Conditions: 4°C; C-terminal fluorescein design as donor, TAMRA target titrated; read-out: Kd
Where no end group is shown, it is not given here.
measurement_label: pKd
Please report pKd as the negative decimal logarithm of the molar concentration, giving only the number.

pKd reported for this sequence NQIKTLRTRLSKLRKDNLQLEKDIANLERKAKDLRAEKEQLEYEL [ATF4-d1] : 7.37

###

target: CREBZF (Homo sapiens, UniProt Q9NS37); construct: made in house; assay: Direct-binding FRET assay; settings: 23°C; N-terminal rhodamine design; mean or single
Sequence (Q9NS37 204-267 limits assumed): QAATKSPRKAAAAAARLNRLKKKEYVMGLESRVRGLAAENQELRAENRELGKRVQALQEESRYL
Where no end group is shown, it is not given here.
measurement_label: Kd

Kd for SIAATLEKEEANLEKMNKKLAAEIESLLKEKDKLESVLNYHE [JUN-d1] is > 1 µM

###

Target: NFE2L2 (Homo sapiens, UniProt Q16236)
Construct: made in house
Sequence (Q16236 497-560 limits assumed): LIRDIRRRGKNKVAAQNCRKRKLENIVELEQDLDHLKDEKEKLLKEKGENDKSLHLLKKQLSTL
Experiment: Direct-binding FRET assay
Conditions: Kd, 37°C; N-terminal rhodamine design; mean or single
Where no end group is shown, it is not given here.
measurement_label: Kd

// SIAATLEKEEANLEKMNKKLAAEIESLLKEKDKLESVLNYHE [JUN-d1] : Kd value = > 1000 nM

###

Biological target: ATF4 (Homo sapiens, UniProt P18848)
Construct: made in house
Sequence (P18848 278-341 limits assumed): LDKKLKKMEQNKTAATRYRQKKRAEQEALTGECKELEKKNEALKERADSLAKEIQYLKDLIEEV
Assay: Direct-binding FRET assay
Conditions: 4°C; C-terminal fluorescein design as donor, TAMRA target titrated; read-out: Kd
Description: The direct binding assay was performed manually in 384-well plates and is similar to a previously described assay. Wells were filled with 20 μL of 1 mM TCEP-HCl. […] Briefly, the Kd of the designed peptide homodimer was experimentally determined and used with previously determined target homodimer Kd values to determine the heterodimer Kd. […] A minimum 15% change in the donor fluorescence upon titrating the acceptor peptide from 0 to 1000 nM was required for a fit to be attempted. […]
Where no end group is shown, it is not given here.
measurement_label: pKd
Friendly reminder that pKd comes from taking -log10 of the concentration in mol/L.

pKd recorded for this sequence, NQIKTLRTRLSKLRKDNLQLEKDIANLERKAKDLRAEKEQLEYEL [ATF4-d1] , is 8.64
